Please provide measured koff for the entries that follow.
# STUDY_TARGET: T1, human FGFR3b expressed with a C-terminal myc-myc-hexahistidine tag (hFGFR3b.mmH) (human)
# T1 construct: also called REGN3152; monomeric human FGFR3b
# T1 chain: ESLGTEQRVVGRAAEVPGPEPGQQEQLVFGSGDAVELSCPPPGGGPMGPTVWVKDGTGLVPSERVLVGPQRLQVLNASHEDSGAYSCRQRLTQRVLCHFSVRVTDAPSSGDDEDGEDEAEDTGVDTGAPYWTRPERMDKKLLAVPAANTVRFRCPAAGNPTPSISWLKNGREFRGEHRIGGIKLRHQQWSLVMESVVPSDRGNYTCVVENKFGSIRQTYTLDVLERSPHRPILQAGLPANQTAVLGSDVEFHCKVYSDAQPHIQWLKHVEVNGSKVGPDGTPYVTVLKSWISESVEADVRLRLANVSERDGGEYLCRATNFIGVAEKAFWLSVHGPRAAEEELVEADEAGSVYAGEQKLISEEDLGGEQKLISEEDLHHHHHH
# ASSAY_PROTOCOL: SPR Biacore, mAb captured on anti-hFc, 25C
# Procedure: The CM5 Biacore sensor surface was derivatized by amine coupling with a monoclonal mouse anti-human Fc monoclonal antibody (REGN2567). […] Antibody-reagent association was monitored for 5 minutes while dissociation in HBS-EP running buffer was monitored for 10 minutes. At the end of each cycle, the anti-FGFR3 antibody capture surface was regenerated using a 10 sec injection of 20 mM phosphoric acid. All binding kinetics experiments were performed at 25° C. […]
The reply should contain only the number, in s⁻¹.

Challenge: Query: koff; subject: H4H30061P (antibody, human IgG4 S228P, kappa, V domains shown) VH: EVQLVESGGGLAQPGGSLKLSCEASGFTFSDSAMHWVRQASGKGLEWVGRIRSKANSYATGYAASVKGRFTISRDDSKNMAFLEMNSLKTEDTAVYYCLRQTYGDPWGQGTLVTVSS VL: DVVMTQSPLSLSVTLGQPASISCRSSLSLVYSDGNNYLNWFQQRPGQSPRRLLYKVFNRDSGVPDRFSGSGSGTDFTLKISRVEAEDVGVYYCMQGTHWPWTFGQGTKVEIKR
Response given: 8.74e-05

Challenge: Query: koff; subject: H4H30063P (antibody, human IgG4 S228P, kappa, V domains shown, HCVR 2, LCVR 10; also called REGN15684) VH: QVQLQESGPGLVKPSETLSLTCTVSGDSINSYFWSWIRQLPGKELEWIGHIYSSGSTRYNPSLQSRVTISIDTSKNQFSLKLSSVTAADTAVYYCARGASAVDYWGQGTLVTVSS VL: EIVLTQSPGTLSLSPGERATLSCRTSQSISSGYLAWYQQKPGQAPRLLIYGASRRATGIPDRFSGSGSGTDFTLTISRLEPEDFVVYYCQQYGSSPYTFGQGTKLEIKR
Response given: 3.83e-05

Challenge: Query: koff; subject: H4H30045P (antibody, human IgG4 S228P, kappa, V domains shown, HCVR 179, LCVR 187) VH: QVQLVQSGAEVKKPGASVKVSCKTSGYRFVNYGFSWVRQAPGQGLEWMGWISPYNGNTNYIQNLQDRITMTTDTSTNTAYMELTNLRSDDTAVYYCATLTGVHFDYWGQGTLVTVSS VL: AIQMTQSPSSLSASVGDRVTITCRASQGIRNDLGWYQQKPGKAPNLLIFETSRLQSGVPSRFSGSGSGTDFTLTINSLQPEDFATYYCLQDYNYPWTFGQGTKVEIKR
Response given: 0.00624

Challenge: Query: koff; subject: H4H30071P (antibody, human IgG4 S228P, kappa, V domains shown, HCVR 42, LCVR 50) VH: QVQLQQSGPGLVKPSQTLSLTCAISGDSVSRNSAAWNWIRQSPSSGLEWLGRTYYRSKWFYDYAISVKSRITVNPDTSKNQFSLHLNSVTPEDTAVYYCARGYGGYEDYFDYWGQGTLVTVSS VL: DIQMTQSPSSVSASVGDRVTITCRASQGISSWLAWYQQKPGKAPKLLIYGASSLQSGVPSRFSGSGSGTDFTLTISSLQPEDFATYFCQQGSSFPYTFGQGTKLEIKR
Response given: 2.96e-05

Challenge: Query: koff; subject: H4H30076P (antibody, human IgG4 S228P, kappa, V domains shown) VH: EVQLVESGGGLVQPGGSLRLSCAASGFTVSSNYMSWVRQAPGKGLEWVSIIYSGGHTYYSDSVKGRFTISRHNSKNTLYLQMNSLRGGDTAVYYCARGYTSGWYGFDFWGQGTLVTVSS VL: DIQMTQSPSSVSASVGDRVTITCRASQGISTWLAWYQQKPGKAPKLLIYAASSLQSGVPSRFSGTGSGTDFTLTISSLQPEDFATYYCQQTNSFPWTFGQGTKVEIKR
Response given: 4.39e-05
